// data source = PubChem BioAssay (NCI)

Tested on: A549/ATCC NSCLC
Assay: NCI-60 one-dose screen, 48 h (100 = growth as untreated, 0 = no growth, -100 = all killed)
Conditions: 10 µM unless noted
This is part of a sample that, as a whole, favours compounds with a hit. Of some 83,000 tested, about 20% had one in any assay. Active and inactive are the calls of the source. Rule for the calls: active = growth percent below 10; inactive = the rest.
assay metric: growth

{"compound": "O=C(Nc1ccccc1)Nc1nc2ccc([N+](=O)[O-])cc2[nH]1", "measured result": "56.7% (inactive)"}
{"compound": "O=C1[C@@H]2Cc3c([nH]c4ccccc34)[C@H](c3ccc(Br)cc3)N2C(=O)CN1C1CCN(Cc2c(Cl)cccc2Cl)CC1", "measured result": "93% (inactive)"}
{"compound": "C/C(CC1(O)C(=O)Nc2ccccc21)=N\\O (stereo not given)", "measured result": "102% (inactive)"}
{"compound": "C/C(=N\\NC(=O)/C=C/CC(=O)O)c1nnn(-c2ccc([N+](=O)[O-])cc2)c1C", "measured result": "102% (inactive)"}
{"compound": "COc1cc(OC)cc(-c2cc(-c3c[nH]c4ccccc34)nc(-c3c[nH]c4ccccc34)c2C#N)c1", "measured result": "98.5% (inactive)"}

----------
Tested on: HS 578T breast
Test: NCI-60 one-dose screen, 48 h (100 = growth as untreated, 0 = no growth, -100 = all killed)
Conditions: 10 µM unless noted
About 83,000 compounds went through this panel and 20% of them were active in at least one assay; those are over-represented in the sample as a whole.
Measured growth of individual entries

{"smiles representation": "CCN(CC)CCOc1ccc(C(=C(c2ccccc2)C2CCCC2)c2ccc(OCCN(CC)CC)cc2)cc1", "value unit": "%", "growth": 12.8}
{"smiles representation": "Cc1ccc(-c2nc(SCC(=O)c3ccccc3)nc(Nc3ccc(S(N)(=O)=O)cc3)c2C#N)cc1", "value unit": "%", "growth": -0.186}
{"smiles representation": "N#Cc1c(-c2cccs2)cc(-c2cnccn2)nc1SCC(=O)N/N=C/c1ccncc1", "value unit": "%", "growth": 109}
{"smiles representation": "COc1ccccc1Cn1cc(C#N)c(N)c1C(=O)c1ccc(Br)cc1", "value unit": "%", "growth": 94.4}
{"smiles representation": "CN(C)CC(=O)Nc1nc(-c2cccc(NS(=O)(=O)c3cccc4c(N(C)C)cccc34)c2)cs1", "value unit": "%", "growth": 90.6}
{"smiles representation": "COc1ccc(/C=N/NC(=O)CSc2nc(-c3cnccn3)cc(-c3cccs3)c2C#N)cc1", "value unit": "%", "growth": 64.6}
{"smiles representation": "CC(C)[C@H]1c2[nH]c3ccccc3c2C[C@H]2C(=O)N(CCCCCCC(=O)NO)CC(=O)N12", "value unit": "%", "growth": 74.2}
{"smiles representation": "Cc1ccccc1N1CCN(C2=C(Cl)C(=O)c3ncccc3C2=O)CC1", "value unit": "%", "growth": 57.4}
{"smiles representation": "COc1ccc(/C(=N\\NC(N)=S)c2ccc(Cl)cc2)cc1OC", "value unit": "%", "growth": 3.4}

----------
Tested on: T-47D breast
Assay: NCI-60 one-dose screen, 48 h
Conditions: 10 µM unless noted
The panel holds about 83,000 compounds, 20% with a hit somewhere; the sample as a whole holds those more often. Activity calls are given as the source filed them. The calls were made as follows: active = growth percent below 10; inactive = the rest.
Labels: active, inactive

{"smiles representation": "COC(=O)c1cccc(NC2=C(Cl)C(=O)C(C)=C(C)C2=O)c1", "tested on": "T-47D breast", "classification": "active"}
{"smiles representation": "C#CCOc1cccc(/C(N)=N/C(N)=N/c2nc3ccccc3s2)c1", "tested on": "T-47D breast", "classification": "inactive"}
{"smiles representation": "CN1CCN(c2ccc(Nc3nc(NCCCNS(=O)(=O)c4cccc(F)c4)c4sccc4n3)cc2)CC1", "tested on": "T-47D breast", "classification": "inactive"}
{"smiles representation": "C/C(=N\\NC(=O)Nc1ccccc1)c1nnn(-c2ccc([N+](=O)[O-])cc2)c1C", "tested on": "T-47D breast", "classification": "inactive"}
{"smiles representation": "CCOC(=O)c1ccc(NC2=CC(=O)C(C)=C(C)C2=O)cc1", "tested on": "T-47D breast", "classification": "inactive"}

----------
Test system: RXF 393 renal
Experiment: NCI-60 one-dose screen, 48 h (100 = growth as untreated, 0 = no growth, -100 = all killed)
Conditions: 10 µM unless noted
This is part of a sample that, as a whole, favours compounds with a hit. Of some 83,000 tested, about 20% had one in any assay.
Criterion: growth meeting or surpassing 80%. Met: MET. Not met: NOT MET.

{"compound": "Cc1ccc(Nc2nc(SC(C)C)nc(-c3ccccc3)c2C#N)cc1", "classification": "MET"}
{"compound": "CCN(CC)CCOc1ccc(C(=C(c2ccccc2)C2CCCC2)c2ccc(OCCN(CC)CC)cc2)cc1", "classification": "NOT MET"}
{"compound": "COc1cc(C(=O)c2cc(C(C)=O)c3ccc(C)cn23)cc(OC)c1OC", "classification": "NOT MET"}
{"compound": "COc1cc2oc(-c3cccc(NC(=O)c4cccc([N+](=O)[O-])c4)c3)cc(=O)c2c(OC)c1OC", "classification": "NOT MET"}
{"compound": "CN1CCN(c2ccc(Nc3nc(NCCCNS(=O)(=O)c4ccc(C(F)(F)F)cc4)c4sccc4n3)cc2)CC1", "classification": "NOT MET"}
{"compound": "CC(C)=CCC[C@](C)(O)[C@H]1CC[C@]2(C)[C@@H]1CC[C@@H]1[C@@]3(C)CC[C@H](N)C(C)(C)[C@@H]3CC[C@]12C", "classification": "NOT MET"}
{"compound": "CC(Nc1ncnc2ccc(-c3cnc(N)nc3)cc12)c1ccccc1 (centres undefined)", "classification": "NOT MET"}
{"compound": "O=C(CSc1nc2ccccc2c(=O)n1CCc1ccccc1)Nc1ccc(S(=O)(=O)Nc2ccc(Cl)nn2)cc1", "classification": "MET"}
{"compound": "COc1ccc([C@@H]2C(=O)N(c3cc(OC)c(OC)c(OC)c3)[C@H]2c2ccc(OC)c(O)c2)cc1", "classification": "NOT MET"}
{"compound": "COc1ccc(N2CCN(C3=C(Cl)C(=O)c4ncccc4C3=O)CC2)cc1", "classification": "NOT MET"}
{"compound": "O=C(CCCCCCN1CC(=O)N2[C@@H](c3ccc(Cl)s3)c3[nH]c4ccccc4c3C[C@H]2C1=O)NO", "classification": "NOT MET"}
{"compound": "C#C[C@]1(O)CC[C@H]2[C@@H]3CC=C4c5sc(Nc6ncccc6C)nc5CC[C@]4(C)[C@H]3CC[C@@]21C", "classification": "NOT MET"}
{"compound": "O=C(Nc1ccc(Cl)c(C(F)(F)F)c1)Nc1ccc2oc(=O)ccc2c1", "classification": "MET"}
{"compound": "O=C(CCCCCC/C=C\\c1csc(Br)n1)NO", "classification": "MET"}
{"compound": "CCCC/C(=C\\c1ccc(O)c(O)c1)C(=O)NC(Cc1ccccc1)C(=O)C(=O)NCCc1ccc(OC)cc1 (centres undefined)", "classification": "MET"}
{"compound": "COc1cc(C(C)=C(c2ccc(OCCN(C)C)cc2)c2ccc(OCCN(C)C)cc2)ccc1F", "classification": "MET"}
{"compound": "Cn1cc(-c2nnc(N)nc2-c2c[nH]c3ccc(Br)cc23)c2cc(Br)ccc21", "classification": "MET"}
{"compound": "Cc1cc(C)cc(NC2=C(Cl)C(=O)c3nc(C)ccc3C2=O)c1", "classification": "NOT MET"}

----------
Test system: A549/ATCC NSCLC
Experiment: NCI-60 one-dose screen, 48 h (100 = growth as untreated, 0 = no growth, -100 = all killed)
Details: 10 µM unless noted
Compounds without any hit were thinned out: in the full panel of roughly 83,000, 20% have a hit. Activity calls are given as the source filed them. How the source made its calls: active means growth percent below 10; inactive means the rest.

{"molecule": "CC(=O)C1=C(C)NC(NNc2ccccc2)=NC1c1ccc([N+](=O)[O-])cc1 (centres undefined)", "growth": "88.1% (inactive)"}
{"molecule": "COc1ccc2sc(NC(=O)CCCCCCNC(=O)C(O)(O)C(F)(F)F)nc2c1", "growth": "2.41% (active)"}
{"molecule": "NS(=O)(=O)c1ccc(CCn2c(-c3ccc(C(=O)O)cc3)nc(-c3ccccc3)c2-c2ccccc2)cc1", "growth": "105% (inactive)"}
{"molecule": "COc1ccc([C@H]2C(=O)N(c3cc(OC)c(OC)c(OC)c3)[C@@H]2c2ccc(OC)c(O)c2)cc1", "growth": "21.6% (inactive)"}
{"molecule": "C/C(=C(/C)C1CC1CCNC1CCC(NC(=O)OC(C)(C)C)CC1)c1ccccc1 (centres undefined)", "growth": "73.4% (inactive)"}
{"molecule": "NS(=O)(=O)c1ccc(Nc2nc(N/N=C/C=C/c3ccccc3)nc(Nc3ccccc3)n2)cc1", "growth": "69.3% (inactive)"}
{"molecule": "O=C(CCCCCCNC(=O)C(O)(O)C(F)(F)F)Nc1ccc(-c2ccccc2)cc1", "growth": "8.66% (active)"}
{"molecule": "O=c1c2ccccc2cc2n1CCN=C2c1ccccc1", "growth": "102% (inactive)"}
{"molecule": "NC(=O)n1c(=O)n(-c2cccc(C(F)(F)F)c2)c(=O)c2cc(-c3ccc(F)cc3F)ccc21", "growth": "4.69% (active)"}
